Reported IC50 by item:
# tgt: AChE (from Electrophorus electricus) (Electrophorus electricus, UniProt O42275)
# Sequence (O42275 24-633): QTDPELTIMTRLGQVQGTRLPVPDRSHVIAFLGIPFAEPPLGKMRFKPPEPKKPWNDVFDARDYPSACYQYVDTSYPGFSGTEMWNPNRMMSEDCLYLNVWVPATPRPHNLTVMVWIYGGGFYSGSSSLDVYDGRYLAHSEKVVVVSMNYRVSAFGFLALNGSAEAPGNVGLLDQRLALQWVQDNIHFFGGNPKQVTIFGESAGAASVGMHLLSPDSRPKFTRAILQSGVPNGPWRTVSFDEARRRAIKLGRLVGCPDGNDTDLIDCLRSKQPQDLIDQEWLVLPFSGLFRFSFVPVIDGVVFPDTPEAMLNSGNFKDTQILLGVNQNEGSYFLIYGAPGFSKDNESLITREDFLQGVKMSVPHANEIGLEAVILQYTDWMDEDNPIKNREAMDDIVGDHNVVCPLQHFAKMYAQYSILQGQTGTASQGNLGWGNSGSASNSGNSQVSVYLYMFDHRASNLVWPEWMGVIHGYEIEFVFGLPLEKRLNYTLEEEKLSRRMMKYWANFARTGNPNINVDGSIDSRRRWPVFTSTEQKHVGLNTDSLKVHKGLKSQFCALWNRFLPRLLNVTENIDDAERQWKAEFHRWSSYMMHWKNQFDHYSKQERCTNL
# assay_conditions: read-out: IC50 AChE
State the result as a value with its unit after it.

molecule="COc1ccc(C2=NOC(CN3CCC(N4CCCC4=O)c4cc(OC)ccc43)C2)cc1 (stereo not drawn) [5j]" reported_measurement="93.7 µM"
molecule="COc1ccc(C2=NOC(CN3CCC(N4CCCC4=O)c4cc(Cl)ccc43)C2)cc1OC (stereo not drawn) [5o]" reported_measurement="13.2 µM"
molecule="Cc1ccc2c(c1)C(N1CCCC1=O)CCN2CC1CC(c2ccccc2)=NO1 (stereo not drawn) [5e]" reported_measurement="189 µM"
molecule="COc1ccc2c(c1)C(N1CCCC1=O)CCN2CC1CC(c2ccc(OC)c(OC)c2)=NO1 (stereo not drawn) [5k]" reported_measurement="15.3 µM"
molecule="O=C1CCCN1C1CCN(CC2CC(c3ccccc3)=NO2)c2ccc(Cl)cc21 (stereo not drawn) [5m]" reported_measurement="30.1 µM"
molecule="COc1cc(C2=NOC(CN3CCC(N4CCCC4=O)c4cc(Cl)ccc43)C2)cc(OC)c1OC (stereo not drawn) [5p]" reported_measurement="12.3 µM"
molecule="COc1cc(C2=NOC(CN3CCC(N4CCCC4=O)c4cc(C)ccc43)C2)cc(OC)c1OC (stereo not drawn) [5h]" reported_measurement="37.4 µM"
molecule="COc1ccc(C2=NOC(CN3CCC(N4CCCC4=O)c4cc(C)ccc43)C2)cc1 (stereo not drawn) [5f]" reported_measurement="16.3 µM"

In: Report IC50, nothing else, for this molecule: COc1ccc2c(c1)C(N1CCCC1=O)CCN2CC1CC(c2cc(OC)c(OC)c(OC)c2)=NO1 (stereo not drawn) [5l]
Out: 109 µM

In: Answer with the recorded IC50 for the molecule listed here: COc1ccc(C2=NOC(CN3CCC(N4CCCC4=O)c4ccccc43)C2)cc1 (stereo not drawn) [5b]
Out: 95.1 µM

In: Tell me measured IC50 for COc1cc(C2=NOC(CN3CCC(N4CCCC4=O)c4ccccc43)C2)cc(OC)c1OC (stereo not drawn) [5d] please.
Out: 49.8 µM

In: Tell me IC50 reported for COc1ccc(C2=NOC(CN3CCC(N4CCCC4=O)c4cc(C)ccc43)C2)cc1OC (stereo not drawn) [5g]
Out: 99.7 µM

In: Input COc1ccc(C2=NOC(CN3CCC(N4CCCC4=O)c4ccccc43)C2)cc1OC (stereo not drawn) [5c] , output reported IC50.
Out: 101 µM

In: Read off the recorded IC50 for COc1ccc2c(c1)C(N1CCCC1=O)CCN2CC1CC(c2ccccc2)=NO1 (stereo not drawn) [5i]
Out: 82 µM

In: Given O=C1CCCN1C1CCN(CC2CC(c3ccccc3)=NO2)c2ccccc21 (stereo not drawn) [5a] , respond with its IC50.
Out: 77.4 µM

====

Test system AChE (from Electrophorus electricus) (Electrophorus electricus, UniProt O42275), SI listed for each of the molecules.
Just the number, please.

molecule="COc1ccc(C2=NOC(CN3CCC(N4CCCC4=O)c4cc(C)ccc43)C2)cc1OC (stereo not drawn) [5g]" tgt="AChE (from Electrophorus electricus) (Electrophorus electricus, UniProt O42275)" parameter=SI reported_measurement=0.32
molecule="O=C1CCCN1C1CCN(Cc2cc(-c3ccccc3)no2)c2ccccc21 (stereo not drawn) [6a]" tgt="AChE (from Electrophorus electricus) (Electrophorus electricus, UniProt O42275)" parameter=SI reported_measurement=0.04
molecule="COc1cc(-c2cc(CN3CCC(N4CCCC4=O)c4cc(C)ccc43)on2)cc(OC)c1OC (stereo not drawn) [6g]" tgt="AChE (from Electrophorus electricus) (Electrophorus electricus, UniProt O42275)" parameter=SI reported_measurement=1.07
molecule="CCc1ccc2c(c1)C(N1CCCC1=O)CCN2Cc1cc(-c2ccc(OC)cc2)no1 (stereo not drawn) [6r]" tgt="AChE (from Electrophorus electricus) (Electrophorus electricus, UniProt O42275)" parameter=SI reported_measurement=0.38
molecule="COc1cc(-c2cc(CN3CCC(N4CCCC4=O)c4cc(Br)ccc43)on2)cc(OC)c1OC (stereo not drawn) [6ab]" tgt="AChE (from Electrophorus electricus) (Electrophorus electricus, UniProt O42275)" parameter=SI reported_measurement=0.36

In: // fetch SI for CCc1cc(Cl)c2c(c1)C(N1CCCC1=O)CCN2Cc1cc(-c2ccc(OC)c(OC)c2)no1 (stereo not drawn) [6s] ; system: AChE (from Electrophorus electricus) (Electrophorus electricus, UniProt O42275)
Out: 0.83

In: Determine reported SI for COc1ccc(-c2cc(CN3CCC(N4CCCC4=O)c4cc(F)ccc43)on2)cc1 (stereo not drawn) [6v] ; test system: AChE (from Electrophorus electricus) (Electrophorus electricus, UniProt O42275).
Out: 1.97

In: Quote AChE (from Electrophorus electricus) (Electrophorus electricus, UniProt O42275) SI for entry COc1ccc(-c2cc(CN3CCC(N4CCCC4=O)c4cc(C)ccc43)on2)cc1 (stereo not drawn) [6e] .
Out: 2.62

In: Find the measured SI of COc1ccc(C2=NOC(CN3CCC(N4CCCC4=O)c4cc(Cl)ccc43)C2)cc1 (stereo not drawn) [5n] with AChE (from Electrophorus electricus) (Electrophorus electricus, UniProt O42275) as test system.
Out: 5.19

====

Known SI of a selection of molecules
# tgt: AChE (from Electrophorus electricus) (Electrophorus electricus)

In: Item O=C1CCCN1C1CCN(CC2CC(c3ccccc3)=NO2)c2ccccc21 (centres unmarked) : provide SI
Out: 1.06

In: Given COc1ccc(-c2cc(CN3CCC(N4CCCC4=O)c4cc(Cl)cc(Cl)c43)on2)cc1OC (centres unmarked) , respond with its SI.
Out: 3.88

In: Supply measured SI of Cc1ccc2c(c1)C(N1CCCC1=O)CCN2CC1CC(c2ccccc2)=NO1 (centres unmarked) in your reply.
Out: 0.17

In: // fetch SI given entry COc1ccc2c(c1)C(N1CCCC1=O)CCN2CC1CC(c2ccc(OC)c(OC)c2)=NO1 (centres unmarked)
Out: 16.8

In: Identify measured SI corresponding to COc1ccc2c(c1)C(N1CCCC1=O)CCN2Cc1cc(-c2ccccc2)no1 (centres unmarked)
Out: 0.08

In: Please list SI recorded for the molecule COc1cc(-c2cc(CN3CCC(N4CCCC4=O)c4ccccc43)on2)cc(OC)c1OC (centres unmarked)
Out: 2.17

====

So I've got SI readings for AChE (from Electrophorus electricus) (Electrophorus electricus, UniProt O42275), take a look.
// no unit string in output, number only

In: State, in one line, measured SI of COc1ccc2c(c1)C(N1CCCC1=O)CCN2Cc1cc(-c2cc(OC)c(OC)c(OC)c2)no1 (stereo not shown)
Out: 3.63

In: Indicate the recorded SI value for this compound: COc1cc(Cl)c2c(c1)C(N1CCCC1=O)CCN2Cc1cc(-c2ccc(OC)c(OC)c2)no1 (stereo not shown)
Out: 2.72

In: Tell me its SI given COc1cc(C2=NOC(CN3CCC(N4CCCC4=O)c4ccccc43)C2)cc(OC)c1OC (stereo not shown) as the entry.
Out: 0.27

In: Return SI (reported value) for this compound: COc1cc(C2=NOC(CN3CCC(N4CCCC4=O)c4cc(Cl)ccc43)C2)cc(OC)c1OC (stereo not shown)
Out: 8.61

====

# tgt: BChE (from bovine serum) (Bos taurus)
# Construct: purchased Sigma-Aldrich
# Sequence (P32749 29-602): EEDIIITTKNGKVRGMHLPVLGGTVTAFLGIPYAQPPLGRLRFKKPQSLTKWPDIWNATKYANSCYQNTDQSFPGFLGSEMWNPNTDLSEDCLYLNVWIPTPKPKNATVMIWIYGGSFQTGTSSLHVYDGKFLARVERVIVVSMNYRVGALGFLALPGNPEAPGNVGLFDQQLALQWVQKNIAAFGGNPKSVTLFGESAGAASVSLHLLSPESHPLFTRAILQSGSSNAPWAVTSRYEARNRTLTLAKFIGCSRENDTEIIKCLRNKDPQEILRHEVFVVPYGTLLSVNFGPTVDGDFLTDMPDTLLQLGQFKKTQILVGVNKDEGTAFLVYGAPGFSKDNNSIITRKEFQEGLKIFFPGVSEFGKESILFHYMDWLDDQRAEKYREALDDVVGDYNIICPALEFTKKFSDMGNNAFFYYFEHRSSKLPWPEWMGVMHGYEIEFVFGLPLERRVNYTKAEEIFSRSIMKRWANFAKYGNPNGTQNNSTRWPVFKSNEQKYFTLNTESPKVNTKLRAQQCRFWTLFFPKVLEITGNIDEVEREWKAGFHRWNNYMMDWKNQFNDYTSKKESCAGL
# assay_method_text: BChE inhibitory activity (Ellman method)
# Format: biochemical
# assay_conditions: Table 2, THQ–isoxazole hybrids 6; average from three independent experiments ± SEM; read-out: BChE (IC50)
Recorded pIC50 values for a group of compounds are listed next.
Remember, pIC50 is on a log scale: it is -log10 of the molar concentration.

Solved cases (4 shown):
compound="COc1ccc(-c2cc(CN3CCC(N4CCCC4=O)c4cc(C)ccc43)on2)cc1 (centres unmarked)" tgt="BChE (from bovine serum) (Bos taurus)" reported_measurement=4.10
compound="O=C1CCCN1C1CCN(Cc2cc(-c3ccccc3)no2)c2ccc(Br)cc21 (centres unmarked)" tgt="BChE (from bovine serum) (Bos taurus)" reported_measurement=4.07
compound="COc1ccc(-c2cc(CN3CCC(N4CCCC4=O)c4cc(Cl)cc(Cl)c43)on2)cc1OC (centres unmarked)" tgt="BChE (from bovine serum) (Bos taurus)" reported_measurement=3.50
compound="COc1ccc(-c2cc(CN3CCC(N4CCCC4=O)c4cc(F)ccc43)on2)cc1 (centres unmarked)" tgt="BChE (from bovine serum) (Bos taurus)" reported_measurement=4.08

In: Quote pIC50 with test system BChE (from bovine serum) (Bos taurus) for CCc1ccc2c(c1)C(N1CCCC1=O)CCN2Cc1cc(-c2ccccc2)no1 (centres unmarked)
Out: 3.97
